# maps each entry to its TGI
Tested on: MDA-MB-231 breast
Experiment description: NCI tumour cell line growth inhibition, 48 h

For orientation, consider the following solved cases.
INSERT INTO measurements (molecule, target_or_test_system, test_value) VALUES
  ('O=C1OC(=O)C(c2c[nH]c3ccccc23)=C1c1c[nH]c2ccccc12', 'MDA-MB-231 breast', '> 25 µM'),
  ('CNC(=O)c1cncc(/C=C/c2ccccc2C)c1', 'MDA-MB-231 breast', '> 25 µM'),
  ('CN(C)NC(=S)Nc1ccccc1Br', 'MDA-MB-231 breast', '> 100 µM'),
  ('CSCCC(NCc1c(O)ccc2c(-c3ccccc3)cc(=O)oc12)C(=O)O (stereo not given)', 'MDA-MB-231 breast', '> 100 µM'),
  ('CCN1C(=O)N(CC)C2C1NN=c1s/c(=C\c3cccnc3)c(=O)n12 (stereo not given)', 'MDA-MB-231 breast', '> 95.3 µM');

Given the molecule O=C1C(c2c(O)[nH]c3ccc(S(=O)(=O)O)cc23)=Nc2ccccc21 , what is its reported TGI?
> 100 µM

Given the molecule C1CCSCCCCSCCCCSCCCCSC1 , what is its reported TGI?
> 100 µM

Given the molecule CC(C)=C[C@@H]1C[C@H](n2cc(C)c(=O)[nH]c2=O)ON1CCO , what is its reported TGI?
> 100 µM

Given the molecule CC1(C)O[C@@H]2COC(=O)[C@@H]2O1 , what is its reported TGI?
> 100 µM

Given the molecule O=C(Cn1ccc(=O)[nH]c1=O)Nc1ccc(C(=O)O)c(O)c1 , what is its reported TGI?
> 100 µM

Given the molecule C/C(N=Nc1nc2ccccc2s1)=C1/C=CC=CN1O , what is its reported TGI?
> 100 µM

Given the molecule COc1ccc(N2C(=O)c3c4c(c5c([nH]c6ncccc65)c3C2=O)CCC(C(C)(C)C)C4)cc1 (stereo not given) , what is its reported TGI?
> 100 µM

====

Test system: NCI-H23 lung
Experiment description: NCI tumour cell line growth inhibition, 48 h
Experimental endpoint: GI50

INSERT INTO measurements (structure, test_value) VALUES
  ('COc1c(CCC[P+](c2ccccc2)(c2ccccc2)c2ccccc2)cc2c(c1OC)OCO2', '2.19 µM'),
  ('Nc1cc2cccc[n+]2c2cc(Cl)ccc12', '13.2 µM'),
  ('CCN(CC)c1ccc(C(=C2C=CC(=[N+](CC)Cc3cccc(S(=O)(=O)O)c3)C=C2)c2ccc(N(CC)Cc3cccc(S(=O)(=O)O)c3)cc2)cc1', '5.14 µM'),
  ('COc1cc(Cl)cc(-c2nn(C(=O)NCCN3CCOCC3)cc2-c2ccncc2)c1', '11.5 µM');

Consider the additional compound presented here.
Given the compound CNC(=O)n1ccc2cc(Oc3ccnc(NC(=O)c4ccc(C5CCN(CCO)CC5)cc4)c3)c(OCCOC)cc21 , what is its reported GI50?
10.5 µM

====

Test system: BT-549 breast
Experiment description: NCI tumour cell line growth inhibition, 48 h
# maps each entry to its GI50

Given the compound CN(C)S(=O)(=O)c1ccc(NC(=O)COC(=O)c2ccc(S(=O)(=O)N3CCCCC3)cc2)cc1 , what is its reported GI50?
> 100 µM

Given the compound CCCCCn1c(=N)n(CC(O)COc2cccc(C)c2)c2ccccc21 (stereo unspecified) , what is its reported GI50?
9.22 µM

Given the compound CCN(Cc1ccc(F)c(F)c1)c1ccc(CO)c(Cl)c1 , what is its reported GI50?
11.3 µM

Given the compound Nc1ccn(Cc2ccc(C34CC5CC(CC(C5)C3)C4)c(O)c2)c(=O)n1 , what is its reported GI50?
> 100 µM

Given the compound Nc1cc2cccc[n+]2c2cc(Cl)ccc12 , what is its reported GI50?
7.24 µM

Given the compound COc1cccc(/C=C/C(=O)c2cccc(Nc3nc(Nc4ccccc4)nc(Nc4ccccc4)n3)c2)c1 , what is its reported GI50?
21.7 µM
